System: U937 cells
method.summary: EC50 of necroptosis inhibition in U937 cells (TSZ-induced, CellTiter-Glo)
Assay type: cell-based
test.context: Homo sapiens, U-937; TSZ (hTNF-α, SM-164, Z-VAD-FMK) 20 hours; 10 concentration points; read-out: EC50 intervals of necroptosis inhibition in U937 cells
reported.property: EC50

# molecule, reported.property, reported.value
rows = [
    ("C[C@@H](NC(=O)C(=O)N[C@H]1COc2ccc(C#CCN3CCNC(=O)C3)cc2N(C)C1=O)c1ccccc1 [Example 145]", "EC50", "< 100 nM"),
]

// query Look up EC50 for this molecule: CN1C(=O)[C@@H](NC(=O)C(=O)NCCc2ccccc2)COc2ccc(C#CCCC(=O)O)cc21 [Example 95]
// result 500 to 2000 nM

// query Look up EC50 for this molecule: C[C@@H](NC(=O)C(=O)N[C@H]1COc2ccc(C#CC[N+]3([O-])CCOCC3)cc2N(C)C1=O)c1ccccc1 [Example 161]
// result < 100 nM

// query Look up EC50 for this molecule: C[C@@H](NC(=O)C(=O)N[C@H]1COc2ccc(C#CC3CCNCC3)cc2N(C)C1=O)c1ccccc1 [Example 135]
// result < 100 nM

// query Look up EC50 for this molecule: CN(C)c1ccc(C#Cc2ccc3c(c2)N(C)C(=O)[C@@H](NC(=O)C(=O)NCCc2ccccc2)CO3)cc1 [Example 75]
// result < 100 nM

// query Look up EC50 for this molecule: CN1C(=O)C(NC(=O)C(=O)NCCc2ccccc2)CCc2ccc(Br)cc21 (stereo not drawn) [Example 61]
// result < 100 nM

// query Look up EC50 for this molecule: CN1C(=O)C(NC(=O)C(=O)NCCc2cccc(F)c2)CCc2ccc(C#CCCO)cc21 (stereo not drawn) [Example 167]
// result < 100 nM

FYI, the data here is from patent US20250368633A1.
